- measuredOn: PARG (Homo sapiens, UniProt Q86W56)
- Sequence (Q86W56 whole entry): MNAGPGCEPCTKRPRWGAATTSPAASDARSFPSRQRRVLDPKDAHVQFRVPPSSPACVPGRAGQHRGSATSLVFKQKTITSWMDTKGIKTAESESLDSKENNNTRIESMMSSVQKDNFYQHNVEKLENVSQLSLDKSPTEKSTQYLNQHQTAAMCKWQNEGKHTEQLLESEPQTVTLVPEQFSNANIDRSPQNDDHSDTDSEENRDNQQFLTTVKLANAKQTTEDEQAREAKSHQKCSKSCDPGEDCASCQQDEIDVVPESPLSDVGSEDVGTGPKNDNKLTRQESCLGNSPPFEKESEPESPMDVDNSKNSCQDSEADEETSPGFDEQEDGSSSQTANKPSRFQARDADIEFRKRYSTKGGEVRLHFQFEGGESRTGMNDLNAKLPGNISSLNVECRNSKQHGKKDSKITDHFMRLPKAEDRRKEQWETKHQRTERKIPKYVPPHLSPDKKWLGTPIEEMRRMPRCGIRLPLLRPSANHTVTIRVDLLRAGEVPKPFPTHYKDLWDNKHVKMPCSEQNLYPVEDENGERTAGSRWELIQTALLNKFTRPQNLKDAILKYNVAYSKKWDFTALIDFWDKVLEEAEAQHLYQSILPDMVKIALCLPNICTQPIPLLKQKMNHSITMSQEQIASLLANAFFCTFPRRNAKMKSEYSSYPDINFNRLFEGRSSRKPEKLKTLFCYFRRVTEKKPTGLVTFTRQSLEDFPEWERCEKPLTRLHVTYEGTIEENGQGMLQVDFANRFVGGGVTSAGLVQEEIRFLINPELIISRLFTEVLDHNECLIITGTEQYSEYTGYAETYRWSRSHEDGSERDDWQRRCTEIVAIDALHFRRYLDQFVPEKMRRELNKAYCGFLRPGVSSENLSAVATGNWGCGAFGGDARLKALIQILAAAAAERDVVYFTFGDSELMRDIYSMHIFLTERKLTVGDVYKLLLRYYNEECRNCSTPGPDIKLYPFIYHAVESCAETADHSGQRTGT
- measurementProtocol: Inhibition of PARG enzymatic assay (TR-FRET enzymatic IC50 assay)
- Assay type: biochemical
- Set-up: purchased Peak Proteins
- reportedConditions: hPARG 250 pM, biotinylated-PARylated PARP substrate 30 nM
Quick list: IC50 per entry.

As a guide, the following entries are already answered.
[
  {
    "compound": "C[C@@H]1CN(c2cc(S(=O)(=O)NC3(C#N)CC3)cc3c2cnn3-c2nnc(C(F)F)s2)CCN1C(=O)C1(C)CCC1 [Example 109]",
    "IC50": "≤ 100 nM"
  },
  {
    "compound": "N#CC1(NS(=O)(=O)c2cc(N3CCC(C(F)F)CC3)c3cnn(-c4nnc(C(F)F)s4)c3c2)CC1 [Example 64]",
    "IC50": "1000 to 10000 nM"
  },
  {
    "compound": "CNC(=O)C1CN(c2cc(S(=O)(=O)NC3(C#N)CC3)cc3c2cnn3-c2nnc(C(F)F)s2)C1 [Example 75]",
    "IC50": "300 to 1000 nM"
  }
]

Please find the next compound below.
Find the measured IC50: item CN1CCN(c2cc(S(=O)(=O)NC3(C#N)CC3)cc3c2cnn3-c2nnc(C(F)F)s2)CC1 [Example 102] , target or system PARG (Homo sapiens, UniProt Q86W56). 100 to 300 nM
